target: human JAK1 (a.a. 837-1142) (Homo sapiens, UniProt P23458); construct: human JAK1 (a.a. 837-1142); His tag (N); made in house; host or cells: insect cells (baculovirus); test: In vitro JAK kinase assay (HTRF, phosphorylation of a biotinylated peptide), JAK1; assay type: biochemical; details: method AA1 (90 μM ATP) or AA2 (1000 μM ATP), not stated per value; read-out: JAK1 IC50
Sequence (P23458 849-1154): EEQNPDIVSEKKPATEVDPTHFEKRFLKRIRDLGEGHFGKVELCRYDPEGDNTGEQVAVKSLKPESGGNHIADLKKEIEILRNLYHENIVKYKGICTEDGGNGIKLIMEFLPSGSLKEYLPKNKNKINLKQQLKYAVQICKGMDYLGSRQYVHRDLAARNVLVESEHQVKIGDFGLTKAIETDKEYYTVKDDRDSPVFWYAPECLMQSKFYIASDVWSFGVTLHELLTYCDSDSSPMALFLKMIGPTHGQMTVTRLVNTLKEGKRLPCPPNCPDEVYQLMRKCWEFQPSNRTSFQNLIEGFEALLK
Where a name gives a salt, the structure may show the parent alone.
ASSAY READOUT: log10 of IC50 (log10 of the value in nM)
Short version: log10 scale, IC50, nM.

Examples with answers:
molecule="CC(C)(C)OC(=O)N1CCN(C(=O)COc2ccc3cc2CCc2cccc(c2)Nc2ncc(Cl)c(n2)N3)CC1 [Example A17, trifluoroacetate]" result_value=1.93
molecule="O=C(CC1CCN(C(=O)c2ccncc2)CC1)Nc1ccc2cc1CCc1cccc(c1)Nc1ncc(Cl)c(n1)N2 [Example A185, bis(trifluoroacetate)]" result_value=1.79
molecule="O=C(CC1CCN(c2ccccn2)CC1)Nc1ccc2cc1CCc1cncc(c1)Nc1ncc(Cl)c(n1)N2 [Example A170, tris(trifluoroacetate)]" result_value=0.89

Hi! Can you tell me log10 of IC50 for each of these molecules?
1. CC(C)N1CCC(CC(=O)Nc2ccc3cc2CCc2cncc(c2)Nc2ncc(Cl)c(n2)N3)CC1 [Example A140, tris(trifluoroacetate)]
2. O=C(Nc1ccc2cc1CCc1cccc(c1)Nc1ncc(Cl)c(n1)N2)C1CCN(C(=O)Cc2ccccc2)CC1 [Example A35, trifluoroacetate]
3. N#Cc1cccnc1N1CCC(CC(=O)Nc2ccc3cc2CCc2cncc(c2)Nc2ncc(Cl)c(n2)N3)CC1 [Example A177, tris(trifluoroacetate)]

Ans.
1.58
1.62
1.15

----------
I'd be grateful if you could share measured pIC50 for these entries.
biological target: human JAK1 (a.a. 837-1142) (Homo sapiens, UniProt P23458); construct: human JAK1 (a.a. 837-1142); His tag (N); made in house; host or cells: insect cells (baculovirus); experiment: In vitro JAK kinase assay (HTRF, phosphorylation of a biotinylated peptide), JAK1; assay type: biochemical; settings: method AA1 (90 μM ATP) or AA2 (1000 μM ATP), not stated per value; read-out: JAK1 IC50
Counter-ions that a name gives are not always drawn.
Numbers only, as −log10 of the molar value.

Examples with their reported pIC50 follow.
compound="N#Cc1ccccc1NC(=O)N1CCC(CC(=O)Nc2ccc3cc2CCc2cncc(c2)Nc2ncc(Cl)c(n2)N3)CC1 [Example A141, bis(trifluoroacetate)]" result_value=8.46
compound="N#Cc1c(N2CCC(CC(=O)Nc3ccc4cc3CCc3cncc(c3)Nc3ncc(Cl)c(n3)N4)CC2)cccc1C(F)(F)F [Example A235, tris(trifluoroacetate)]" result_value=7.92

Now examine the next entry.
Qu. For the compound N#Cc1ccc(NC(=O)N2CCN(C(=O)COc3ccc4cc3CCc3cccc(c3)Nc3ncc(Cl)c(n3)N4)CC2)cc1 [Example A9, trifluoroacetate] , what pIC50 is on record?
Ans. 8.04

----------
molecular target: human JAK2 (a.a. 828-1132) (Homo sapiens); construct: JAK2 (a.a. 828-1132); His tag (N); made in house; host or cells: insect cells (baculovirus); assay: In vitro JAK kinase assay (HTRF, phosphorylation of a biotinylated peptide), JAK2; format: biochemical; details: Table B1
Sequence (O60674 828-1132): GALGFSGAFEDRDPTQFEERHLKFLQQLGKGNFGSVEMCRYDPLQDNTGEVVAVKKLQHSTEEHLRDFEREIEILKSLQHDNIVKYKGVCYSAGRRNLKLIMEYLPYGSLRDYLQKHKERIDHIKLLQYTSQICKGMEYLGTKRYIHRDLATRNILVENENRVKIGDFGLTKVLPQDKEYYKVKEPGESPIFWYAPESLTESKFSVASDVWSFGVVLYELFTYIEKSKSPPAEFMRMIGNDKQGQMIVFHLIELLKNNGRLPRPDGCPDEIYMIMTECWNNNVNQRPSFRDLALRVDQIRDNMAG
Where a name gives a salt, the structure may show the parent alone.
ASSAY READOUT: IC50 (nM)
Numbers only, in nM.

Would you please look over these solved cases?
compound="N#Cc1ccc(NC(=O)Nc2ccc3cc2CCc2cccc(c2)Nc2ncc(Cl)c(n2)N3)cc1 [Example B96, trifluoroacetate]" assay_readout=IC50 result_value=6
compound="COCC(=O)Nc1ccc2cc1CCc1cccc(c1)Nc1ncc(Cl)c(n1)N2 [Example B28, trifluoroacetate]" assay_readout=IC50 result_value=4.1
compound="Cc1cc(C(=O)Nc2ccc3cc2CCc2cccc(c2)Nc2ncc(Cl)c(n2)N3)no1 [Example B68, trifluoroacetate]" assay_readout=IC50 result_value=2.3

Okay, next one:
Qu. I would be grateful if you could share the reported IC50 for `CC(C)(C)OC(=O)N[C@@H]1CCN(C(=O)Nc2ccc3cc2CCc2cccc(c2)Nc2ncc(Cl)c(n2)N3)C1` .
Ans. 1.7
